Ref: paper PMC6628001

# tested on: T1, Pif1ΔN (Saccharomyces cerevisiae, UniProt P07271 234-859, del1-233)
# T1 sequence: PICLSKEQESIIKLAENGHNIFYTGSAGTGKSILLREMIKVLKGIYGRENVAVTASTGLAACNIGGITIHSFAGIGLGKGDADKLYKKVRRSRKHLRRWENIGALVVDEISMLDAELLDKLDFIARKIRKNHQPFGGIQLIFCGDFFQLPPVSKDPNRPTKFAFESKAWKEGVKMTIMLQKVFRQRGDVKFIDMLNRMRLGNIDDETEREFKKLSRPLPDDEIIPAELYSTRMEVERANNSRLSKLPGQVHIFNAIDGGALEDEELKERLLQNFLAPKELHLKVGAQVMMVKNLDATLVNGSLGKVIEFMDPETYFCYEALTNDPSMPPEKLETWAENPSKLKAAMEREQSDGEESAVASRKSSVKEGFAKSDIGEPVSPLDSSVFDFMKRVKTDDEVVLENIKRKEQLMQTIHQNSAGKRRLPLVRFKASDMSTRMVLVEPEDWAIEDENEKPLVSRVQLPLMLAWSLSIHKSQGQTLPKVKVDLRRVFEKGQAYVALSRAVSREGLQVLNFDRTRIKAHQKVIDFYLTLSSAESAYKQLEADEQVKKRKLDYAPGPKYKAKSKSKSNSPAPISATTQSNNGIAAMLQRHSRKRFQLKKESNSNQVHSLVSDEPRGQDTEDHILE
# assay info: EMSA; 7.5 mM Mg2+; 25 mM HEPES pH 8.0, 5% glycerol, 50 mM NaOAc, 150 μM NaCl (so in the source), 7.5 mM MgCl2, 0.01% Tween-20; 0.2 nM DNA; 30 °C 30 min; 4 mM ATP when present (not stated per row)
# reported conditions: protein: recombinant; tags: SUMO tag in expression construct (pSUMO-Pif1ΔN); label: 32P (5' end, T4 PNK)
Record form. Attribute: pKd. Fill in for each entry.
Answers are plain numbers, as −log10 of the molar value.

{"binder": "CGCCATGCTGATCCGTGTGGTGTGTGTGGG (ssDNA) [Tel30]", "pKd": 9.39}

Here is the next item to consider.
Exam item: Entry under review: TGTGGTGTGTGTGGG (ssDNA) [Tel15] . Reported pKd?
Marked response: 9.41
